Assayed System: GST-SAST1 PDZ domain (human), Q9Y2H9
Sequence (Q9Y2H9 other isoform, or with tags, fused parts or gaps limits assumed): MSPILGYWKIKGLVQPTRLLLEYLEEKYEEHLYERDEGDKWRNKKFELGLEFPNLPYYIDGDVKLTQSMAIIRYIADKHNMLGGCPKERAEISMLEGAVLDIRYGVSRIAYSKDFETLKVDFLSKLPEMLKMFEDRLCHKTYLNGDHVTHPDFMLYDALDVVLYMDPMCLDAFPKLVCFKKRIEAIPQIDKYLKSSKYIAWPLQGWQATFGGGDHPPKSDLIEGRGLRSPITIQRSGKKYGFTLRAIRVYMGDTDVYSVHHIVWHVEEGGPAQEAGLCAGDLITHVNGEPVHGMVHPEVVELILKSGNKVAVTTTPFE
Assay Remarks: Matrix/G assay ELISA, E6 peptide titrated on GST-PDZ
Ends that are not written are not given here.
Value Type: pEC50
Numbers only, as −log10 of the molar value.

Enquiry: // pEC50 lookup, key: WTGRCMSCCRSSRTRRETQL (not fully specified; cysteine pairing not given here) [HPV16 E6 C-terminal PDZ ligand peptide (20 mer, biotinylated), P03126 139-158]
Return: 6.24

Source: patent US20040229298A1
